Origin of measurements: PubChem BioAssay AID2060893

- Test system: K86415-001-R-J1-PDC complex spheroids, viability
- EXPERIMENT_SUMMARY: Anticancer human tumor K86415-001-R-J1-PDC patient-derived lung adenocarcinoma cell line growth inhibition [RAS]
- TEST_PARAMETERS: second compound 0.00949 µM; first compound 0.1 µM; stronger effect = lower value
MEASURED_QUANTITY: viability, T/C (%)
Kindly provide the numeric value in % only, without the unit symbol.

-- ask Which viability, T/C value belongs to C=CC(=O)Nc1cc(Nc2nccc(-c3cn(C)c4ccccc34)n2)c(OC)cc1N(C)CCN(C)C + CCn1c(-c2cccnc2C(C)OC)c2c3cc(ccc31)N1CCOC(CC(NC(=O)C(C(C)C)N(C)C(=O)C3(F)CCN(C(=O)C#CC(C)(C)N(C)C)CC3)C(=O)N3CCCC(N3)C(=O)OCC(C)(C)C2)C1 ?
-- reply 7.32

-- ask Please report the recorded viability, T/C for CCC(CC)c1cc(NC2CCC(N)C2)n2nccc2n1 (centres undefined) + CCn1c(-c2cc(N3CCN(C)CC3)cnc2C(C)OC)c2c3cc(ccc31)-c1csc(n1)CC(NC(=O)C1CC1C)C(=O)N1CCCC(N1)C(=O)OCC(C)(C)C2 .
-- reply 11.2

-- ask // viability, T/C lookup, key: CC(C)NCC(C(=O)N1CCN(c2ncnc3c2C(C)CC3O)CC1)c1ccc(Cl)cc1 (centres undefined) + CCn1c(-c2cccnc2C(C)OC)c2c3cc(ccc31)N1CCOC(CC(NC(=O)C(C(C)C)N(C)C(=O)C3(F)CCN(C(=O)C#CC(C)(C)N(C)C)CC3)C(=O)N3CCCC(N3)C(=O)OCC(C)(C)C2)C1
-- reply 9.52

-- ask # viability, T/C lookup, item C=CC(=O)Nc1cc(Nc2nccc(-c3cn(C)c4ccccc34)n2)c(OC)cc1N(C)CCN(C)C + CCn1c(-c2cc(N3CCN(C)CC3)cnc2C(C)OC)c2c3cc(ccc31)-c1csc(n1)CC(NC(=O)C1CC1C)C(=O)N1CCCC(N1)C(=O)OCC(C)(C)C2
-- reply 8.25

----------
- Tested on: K86415-001-R-J1-PDC complex spheroids, viability
- EXPERIMENT_SUMMARY: Anticancer human tumor K86415-001-R-J1-PDC cell line growth inhibition [RAS];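 note: spheroids exposed to agents for seven days before readout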
- TEST_PARAMETERS: second compound 0.01 µM; first compound 1 µM; stronger effect = lower value
For each entry below, report its viability, T/C value.
The reply should contain only the number, in %.

-- ask For C[C@@H](NC(=O)c1ncnc(N)c1Cl)c1ncc(C(=O)Nc2cc(C(F)(F)F)c(Cl)cn2)s1 + C=CC(=O)N1CCN(c2nc(OCC3CCCN3C)nc3c(F)c(-c4nc(N)cc(C)c4C(F)(F)F)c(Cl)cc23)C(C)C1 , what is its reported viability, T/C?
-- reply 14.6

-- ask Quick one: viability, T/C for CC(=O)OC12COC1CC(O)C1(C)C(=O)C(O)C3=C(C)C(OC(=O)C(O)C(NC(=O)OC(C)(C)C)c4ccccc4)CC(O)(C(OC(=O)c4ccccc4)C21)C3(C)C (centres undefined) + C=CC(=O)N1CCN(c2nc(OCC3CCCN3C)nc3c(F)c(-c4nc(N)cc(C)c4C(F)(F)F)c(Cl)cc23)C(C)C1 ?
-- reply 13.2

-- ask I have this compound here, CC1(O)CCCC1n1c(=O)c(C(F)F)cc2cnc(NC3CCN(S(C)(=O)=O)CC3)nc21 (centres undefined) + C=CC(=O)N1CCN(c2nc(OCC3CCCN3C)nc3c(F)c(-c4nc(N)cc(C)c4C(F)(F)F)c(Cl)cc23)C(C)C1 , and I need its recorded viability, T/C.
-- reply 12.3

-- ask What viability, T/C value was documented for this compound, CC(C)NCC(C(=O)N1CCN(c2ncnc3c2C(C)CC3O)CC1)c1ccc(Cl)cc1 (centres undefined) + C=CC(=O)N1CCN(c2nc(OCC3CCCN3C)nc3c(F)c(-c4nc(N)cc(C)c4C(F)(F)F)c(Cl)cc23)C(C)C1 ?
-- reply 7.26

-- ask So what does the record say about viability, T/C for CCC(CC)c1cc(NC2CCC(N)C2)n2nccc2n1 (centres undefined) + C=CC(=O)N1CCN(c2nc(OCC3CCCN3C)nc3c(F)c(-c4nc(N)cc(C)c4C(F)(F)F)c(Cl)cc23)C(C)C1 ?
-- reply 23.3

-- ask Field request: viability, T/C | item: NC1c2ccccc2OC12CCN(c1cnc3c(N4CCCc5ncccc54)n[nH]c3n1)CC2 (centres undefined) + C=CC(=O)N1CCN(c2nc(OCC3CCCN3C)nc3c(F)c(-c4nc(N)cc(C)c4C(F)(F)F)c(Cl)cc23)C(C)C1
-- reply 4.12

-- ask Any idea what viability, T/C was measured for CCN1CCN(Cc2ccc(Nc3ncc(F)c(-c4cc(F)c5nc(C)n(C(C)C)c5c4)n3)nc2)CC1 + C=CC(=O)N1CCN(c2nc(OCC3CCCN3C)nc3c(F)c(-c4nc(N)cc(C)c4C(F)(F)F)c(Cl)cc23)C(C)C1 ?
-- reply 24.8

-- ask Value lookup for viability, T/C; key = C=CC(=O)Nc1cc(Nc2nccc(-c3cn(C)c4ccccc34)n2)c(OC)cc1N(C)CCN(C)C + C=CC(=O)N1CCN(c2nc(OCC3CCCN3C)nc3c(F)c(-c4nc(N)cc(C)c4C(F)(F)F)c(Cl)cc23)C(C)C1
-- reply 6.11

-- ask Give the measured viability, T/C of Cc1nc(N2CCC3(CC2)COC(C)C3N)c(CO)nc1Sc1ccnc(N)c1Cl (centres undefined) + C=CC(=O)N1CCN(c2nc(OCC3CCCN3C)nc3c(F)c(-c4nc(N)cc(C)c4C(F)(F)F)c(Cl)cc23)C(C)C1 .
-- reply 4.7

----------
- System: K86415-001-R-J1-PDC complex spheroids, viability
- EXPERIMENT_SUMMARY: Anticancer human tumor K86415-001-R-J1-PDC cell line growth inhibition [RAS];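 note: spheroids exposed to agents for seven days before readout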
- TEST_PARAMETERS: second compound 0.000949 µM; first compound 0.01 µM; stronger effect = lower value
Give viability, T/C for every item shown.
Give the number; % is assumed, so skip it.

-- ask Need viability, T/C, item C=CC(=O)Nc1cc(Nc2nccc(-c3cn(C)c4ccccc34)n2)c(OC)cc1N(C)CCN(C)C + CCn1c(-c2cccnc2C(C)OC)c2c3cc(ccc31)N1CCOC(CC(NC(=O)C(C(C)C)N(C)C(=O)C3(F)CCN(C(=O)C#CC(C)(C)N(C)C)CC3)C(=O)N3CCCC(N3)C(=O)OCC(C)(C)C2)C1
-- reply 31.8

-- ask Fill in the blank: the reported viability, T/C of CCN1CCN(Cc2ccc(Nc3ncc(F)c(-c4cc(F)c5nc(C)n(C(C)C)c5c4)n3)nc2)CC1 + CCn1c(-c2cccnc2C(C)OC)c2c3cc(ccc31)N1CCOC(CC(NC(=O)C(C(C)C)N(C)C(=O)C3(F)CCN(C(=O)C#CC(C)(C)N(C)C)CC3)C(=O)N3CCCC(N3)C(=O)OCC(C)(C)C2)C1 is ____.
-- reply 31.2

-- ask Which viability, T/C value belongs to O=C(c1ccc(F)c(F)c1Nc1ccc(I)cc1F)N1CC(O)([C@@H]2CCCCN2)C1 + CCn1c(-c2cc(N3CCN(C)CC3)cnc2C(C)OC)c2c3cc(ccc31)-c1csc(n1)CC(NC(=O)C1CC1C)C(=O)N1CCCC(N1)C(=O)OCC(C)(C)C2 ?
-- reply 36.8

-- ask Could you share which viability, T/C value was measured for O=C(c1ccc(F)c(F)c1Nc1ccc(I)cc1F)N1CC(O)([C@@H]2CCCCN2)C1 + CCn1c(-c2cccnc2C(C)OC)c2c3cc(ccc31)N1CCOC(CC(NC(=O)C(C(C)C)N(C)C(=O)C3(F)CCN(C(=O)C#CC(C)(C)N(C)C)CC3)C(=O)N3CCCC(N3)C(=O)OCC(C)(C)C2)C1 ?
-- reply 29.1

----------
Assign viability, T/C to each entry below.
- System: K86415-001-R-J1-PDC complex spheroids, viability
- EXPERIMENT_SUMMARY: Anticancer human tumor K86415-001-R-J1-PDC cell line growth inhibition [RAS];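 note: spheroids exposed to agents for seven days before readout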
- TEST_PARAMETERS: second compound 3.16 µM; first compound 0.00316 µM; stronger effect = lower value
- From the text: RAS pathway inhibitors in Combinations in Complex Spheroids A high-throughput screen of multi-cell type tumor spheroids was designed to identify active combinations of RAS pathway inhibitors and targeted small molecules. Complex spheroids include a stromal component modeled by human endothelial cells (HUVEC) and fibroblasts modeled by human mesenchymal stem cells (MSCs). […] Compounds. […] If the clinical Cmax for an agent had not been determined, the highest concentration tested was 10 microM. […]
Your answer should be a plain number; it is taken to be in %.

-- ask Please report the recorded viability, T/C for CCN1CCN(Cc2ccc(Nc3ncc(F)c(-c4cc(F)c5nc(C)n(C(C)C)c5c4)n3)nc2)CC1 + C#Cc1c(F)ccc2cc(O)cc(-c3ncc4c(N5CC6CCC(C5)N6)nc(OCC56CCCN5CC(F)C6)nc4c3F)c12 .
-- reply 39.5

-- ask Entry O=C(c1ccc(F)c(F)c1Nc1ccc(I)cc1F)N1CC(O)([C@@H]2CCCCN2)C1 + C#Cc1c(F)ccc2cc(O)cc(-c3ncc4c(N5CC6CCC(C5)N6)nc(OCC56CCCN5CC(F)C6)nc4c3F)c12 : reported viability, T/C = ?
-- reply 28.6

-- ask Consider the compound shown here: C=CC(=O)N1CCN(c2nc(OCC3CCCN3C)nc3c(F)c(-c4nc(N)cc(C)c4C(F)(F)F)c(Cl)cc23)C(C)C1 (stereo not drawn) + C#Cc1c(F)ccc2cc(O)cc(-c3ncc4c(N5CC6CCC(C5)N6)nc(OCC56CCCN5CC(F)C6)nc4c3F)c12 What is its recorded viability, T/C?
-- reply 19.5
